Target: human CD40 on cells (human, UniProt P25942 21-277)
Sequence (P25942 21-277): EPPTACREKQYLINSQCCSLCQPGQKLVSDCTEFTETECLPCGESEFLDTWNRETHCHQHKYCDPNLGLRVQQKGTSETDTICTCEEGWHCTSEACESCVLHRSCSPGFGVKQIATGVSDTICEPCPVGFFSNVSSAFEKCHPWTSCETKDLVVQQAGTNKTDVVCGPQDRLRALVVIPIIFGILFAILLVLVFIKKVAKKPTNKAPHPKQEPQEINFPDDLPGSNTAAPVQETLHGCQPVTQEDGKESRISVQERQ
Test: cell-based or functional assay
Field: Maximum Fold Increase of MHC II on dendritic cells. Provide a value for each of the binders that follow.
Please answer using the number first and the unit second.

Query (binder): Antibody clone A4 (antibody, human IgG1, lambda, V domains shown, Tested as purified antibody; full chains are assembled here from VH/VL plus these; also called A4 ANTI-CD40 ANTIBODY) VH: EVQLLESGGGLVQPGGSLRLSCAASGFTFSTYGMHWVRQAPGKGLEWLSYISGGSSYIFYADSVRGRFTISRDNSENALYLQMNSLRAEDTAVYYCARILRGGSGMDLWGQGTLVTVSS VL: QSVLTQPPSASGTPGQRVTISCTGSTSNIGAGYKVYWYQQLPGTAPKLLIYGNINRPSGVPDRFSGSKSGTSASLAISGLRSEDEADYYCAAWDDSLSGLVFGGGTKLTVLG ; field requested: Maximum Fold Increase of MHC II on dendritic cells
851 fold

Query (binder): Antibody clone H11 (antibody, human IgG1, lambda, V domains shown, also called H11 ANTI-CD40 ANTIBODY) VH: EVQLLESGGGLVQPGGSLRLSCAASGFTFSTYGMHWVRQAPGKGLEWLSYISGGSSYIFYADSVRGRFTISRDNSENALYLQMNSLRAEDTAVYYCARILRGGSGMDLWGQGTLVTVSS VL: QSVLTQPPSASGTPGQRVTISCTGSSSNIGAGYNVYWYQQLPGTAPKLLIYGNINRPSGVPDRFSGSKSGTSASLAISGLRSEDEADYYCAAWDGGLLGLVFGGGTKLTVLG ; field requested: Maximum Fold Increase of MHC II on dendritic cells
481 fold

Query (binder): Antibody clone C4 (antibody, human IgG1, lambda, V domains shown, Same VL changes as A4; VH carries S63T; also called C4 ANTI-CD40 ANTIBODY) VH: EVQLLESGGGLVQPGGSLRLSCAASGFTFSTYGMHWVRQAPGKGLEWLSYISGGSSYIFYADTVRGRFTISRDNSENALYLQMNSLRAEDTAVYYCARILRGGSGMDLWGQGTLVTVSS VL: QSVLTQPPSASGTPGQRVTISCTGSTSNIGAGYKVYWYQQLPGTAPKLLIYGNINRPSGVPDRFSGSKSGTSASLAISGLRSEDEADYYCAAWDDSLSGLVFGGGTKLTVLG ; field requested: Maximum Fold Increase of MHC II on dendritic cells
395 fold

Query (binder): Antibody B44 (antibody, V domains shown, Parent agonistic anti-CD40 antibody from the n-CoDeR library; Run alongside the IgG clones as 'B44 antibody' and detected with anti-human Ig on RAMOS cells; also called B44 antibody; original anti-CD40 antibody) VH: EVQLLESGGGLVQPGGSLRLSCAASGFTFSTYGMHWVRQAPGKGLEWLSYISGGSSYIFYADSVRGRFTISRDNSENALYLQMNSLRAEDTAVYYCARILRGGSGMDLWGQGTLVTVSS VL: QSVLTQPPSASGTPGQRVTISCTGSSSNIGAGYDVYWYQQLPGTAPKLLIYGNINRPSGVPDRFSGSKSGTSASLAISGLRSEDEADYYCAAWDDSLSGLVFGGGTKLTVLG ; field requested: Maximum Fold Increase of MHC II on dendritic cells
811 fold
